Origin of values: paper PMC7216583

experiment: in vitro; settings: human, Host viability (%) mean
Criterion: viability at 72 h strictly under 70%. Met: yes. Not met: no.

molecule	class
O=S(=O)(NCCNC/C=C/c1ccc(Br)cc1)c1cccc2cnccc12 [H 89 2HCl, reference compound]	no
CN(C)Cc1c(C(=O)NCCOc2ccc(C(=O)NO)cc2)oc2ccccc12	yes
Cc1[nH]c(/C=C2\C(=O)Nc3ccc(S(=O)(=O)Cc4c(Cl)cccc4Cl)cc32)c(C)c1C(=O)N1CCC[C@@H]1CN1CCCC1 [PHA-665752, reference compound]	no

Proceed to the following item.
Hello, I'm reviewing records and need to know if viability at 72 h of "Nc1ccccc1NC(=O)c1ccc(CNC(=O)OCc2cccnc2)cc1" is below 70%. Could you check?
no
